Where do the numbers come from? From ChEMBL document CHEMBL1140374.

pKi, Adenosine receptor A2a (Homo sapiens, UniProt P29274), per-entry values.
Reminder that pKi is minus the log10 of a molar concentration.

                                   molecule   val
0  O=c1nc2[nH]c3ccccc3nc-2c(=O)[nH]1 [ALLOXAZINE]  6.03

Incoming: // lookup pKi for CCCCc1nc(N)c2nc(-n3nccn3)n(C)c2n1 [ST1535]
Outgoing: 8.18

Incoming: // lookup pKi for Cc1cc2c(nc(-n3nccn3)n2C)c(N)n1
Outgoing: 6.92
